Would you kindly list log10(kon) for each of these binders?
# experimental.target: T1, PD-L1 fuse-expressed with an Fc derived from human IgG1 (human, UniProt Q9NZQ7 19-239)
# T1 construct: Bought reagent; also called PD-L1-Fc; hPD-L1-Fc; not shown: Fc of human IgG1
# T1 sequence (Q9NZQ7 19-239 limits assumed): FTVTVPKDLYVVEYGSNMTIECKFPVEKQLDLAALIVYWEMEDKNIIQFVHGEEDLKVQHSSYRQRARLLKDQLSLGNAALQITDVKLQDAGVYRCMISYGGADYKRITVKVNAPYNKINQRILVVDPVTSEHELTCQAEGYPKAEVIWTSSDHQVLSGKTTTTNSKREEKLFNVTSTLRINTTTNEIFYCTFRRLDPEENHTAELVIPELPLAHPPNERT
# experiment.description: SPR Biacore T200; PD1-RFc mobile phase
Recorded kon (log10, M⁻¹ s⁻¹)

{"columns": ["binder", "log10(kon)"],
 "data": [
  ["Seq No. 5-RFc (PD-1 variant PD1_56#-15 fused to rabbit IgG Fc) (Fc fusion, Signal peptide 1-20 left out; also called variant 4; Mut4/56#-15; not shown: rabbit IgG Fc (RFc) of vector pcDNA3.4-RFc) PGWFLDSPDRPWNPPTFSPALLVVTEGDNATFTCSFSNTSESFVLNWYRMSPSNQTDKLAAFPEDFRNCTQDCRFRVTQLPNGRDFHMSVVRARRNDSGTYLCGAISLSTPVWIKESLRAELRVTERRAEVPTAH", 6.18]
]}

Consider the following items and state reported log10(kon) for each.
1. Seq No. 4-RFc (PD-1 variant PD1_56#-3 fused to rabbit IgG Fc) (Fc fusion, Signal peptide 1-20 left out; several higher bands in non-reducing SDS-PAGE; also called variant 3; Mut3/56#-3; not shown: rabbit IgG Fc (RFc) of vector pcDNA3.4-RFc) PGWFLDSPDRPWNPPTFSPALLVVTEGDNATFTCSFSNTSESFVLNWYRMSPSNQTDKLAAFPWMFCFPGQDCRFRVTQLPNGRDFHMSVVRARRNDSGTYLCGAISLSTPVWIKESLRAELRVTERRAEVPTAH
2. Seq No. 7-RFc (PD-1 variant PD1_56#-108 fused to rabbit IgG Fc) (Fc fusion, Signal peptide 1-20 left out; also called variant 6; not shown: rabbit IgG Fc (RFc) of vector pcDNA3.4-RFc) PGWFLDSPDRPWNPPTFSPALLVVTEGDNATFTCSFSNTSESFVLNWYRMSPSNQTDKLAAFPEDRINRSQDCRFRVTQLPNGRDFHMSVVRARRNDSGTYLCGAISLSTPVWIKESLRAELRVTERRAEVPTAH
3. Seq No. 6-RFc (PD-1 variant PD1_56#-16 fused to rabbit IgG Fc) (Fc fusion, Signal peptide 1-20 left out; several higher bands in non-reducing SDS-PAGE; also called variant 5; PD1 variant 5 (56#-16); not shown: rabbit IgG Fc (RFc) of vector pcDNA3.4-RFc) PGWFLDSPDRPWNPPTFSPALLVVTEGDNATFTCSFSNTSESFVLNWYRMSPSNQTDKLAAFPEDFFTVSQDCRFRVTQLPNGRDFHMSVVRARRNDSGTYLCGAISLSTPVWIKESLRAELRVTERRAEVPTAH
4. Seq No. 2-RFc (PD-1 variant PD1_56# fused to rabbit IgG Fc) (Fc fusion, Signal peptide 1-20 left out; also called variant 1; Mut1/56#; not shown: rabbit IgG Fc (RFc) of vector pcDNA3.4-RFc) PGWFLDSPDRPWNPPTFSPALLVVTEGDNATFTCSFSNTSESFVLNWYRMSPSNQTDKLAAFPEDRSQPGQDCRFRVTQLPNGRDFHMSVVRARRNDSGTYLCGAISLSTPVWIKESLRAELRVTERRAEVPTAH

Solution:
1: 4.83; 2: 6.30; 3: 6.37; 4: 6.45
